- measuredTarget: LasB (Pseudomonas aeruginosa, UniProt Q02RJ6)
- Construct: The elastase LasB of P. aeruginosa is a secreted metalloprotease; endogenous in cells; host or cells: P. aeruginosa PA14 culture supernatant
- Sequence (Q02RJ6 198-498): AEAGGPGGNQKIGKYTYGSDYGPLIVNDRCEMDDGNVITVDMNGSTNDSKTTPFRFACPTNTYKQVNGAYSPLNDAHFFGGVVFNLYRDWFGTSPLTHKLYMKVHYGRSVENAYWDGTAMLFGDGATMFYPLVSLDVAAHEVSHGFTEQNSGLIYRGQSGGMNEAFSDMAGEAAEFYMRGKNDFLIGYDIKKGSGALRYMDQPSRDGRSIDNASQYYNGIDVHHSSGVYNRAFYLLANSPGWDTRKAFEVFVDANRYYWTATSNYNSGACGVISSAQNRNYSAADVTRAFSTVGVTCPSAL
- assay: FRET-based LasB in vitro inhibition assay
- Format: biochemical, P. aeruginosa PA14
- measurementSetup: read-out: LasB Inhibition at 20 μM
Reported inhibition at 20 µM values for the following compounds.
Please reply with the bare figure in % and do not write the unit itself.

Here are 2 compounds together with their reported answers.
>>> readoutnumber("O=C(NO)[C@H](CNCc1ccccc1)OCc1ccc(C#Cc2ccc(CN3CCOCC3)cc2)cc1 [(S)-12a]")
57
>>> readoutnumber("O=C(NC[C@H](OCc1ccc(C#Cc2ccc(CN3CCOCC3)cc2)cc1)C(=O)NO)c1cc[nH]n1 [(S)-13l]")
11.6

Next compound, inhibition at 20 µM to be filled in.
Query: Bench note: what inhibition at 20 µM did O=C(NC[C@H](OCc1ccc(C#Cc2ccc(CN3CCOCC3)cc2)cc1)C(=O)NO)c1cccc2[nH]ccc12 [(S)-13i] show?
Response: 27.6

---

- assay: microsomal metabolic stability, mouse
- Format: in vitro ADME
- measurementSetup: mouse liver microsomes
reportedMetric: microsomal CLint

# annotated cases, reported microsomal CLint shown
>>> result("O=C(NC[C@H](OCc1ccc(C#Cc2ccc(CN3CCOCC3)cc2)cc1)C(=O)NO)c1c[nH]c2ccccc12 [(S)-13h]")
"< 23 µL/min/mg"
>>> result("O=C(NC[C@H](OCc1ccc(C#Cc2ccc(CN3CCOCC3)cc2)cc1)C(=O)NO)c1ccc2[nH]ccc2c1 [(S)-13j]")
"< 23 µL/min/mg"

Next, consider the following compound.
Query: Please look up its microsomal CLint: O=C(NC[C@H](OCc1ccc(C#Cc2ccc(CN3CCOCC3)cc2)cc1)C(=O)NO)c1cc[nH]n1 [(S)-13l]
Response: 26 µL/min/mg

---

- measuredTarget: MMP2 (Homo sapiens, UniProt P08253)
- Sequence (P08253 110-660, species assumed): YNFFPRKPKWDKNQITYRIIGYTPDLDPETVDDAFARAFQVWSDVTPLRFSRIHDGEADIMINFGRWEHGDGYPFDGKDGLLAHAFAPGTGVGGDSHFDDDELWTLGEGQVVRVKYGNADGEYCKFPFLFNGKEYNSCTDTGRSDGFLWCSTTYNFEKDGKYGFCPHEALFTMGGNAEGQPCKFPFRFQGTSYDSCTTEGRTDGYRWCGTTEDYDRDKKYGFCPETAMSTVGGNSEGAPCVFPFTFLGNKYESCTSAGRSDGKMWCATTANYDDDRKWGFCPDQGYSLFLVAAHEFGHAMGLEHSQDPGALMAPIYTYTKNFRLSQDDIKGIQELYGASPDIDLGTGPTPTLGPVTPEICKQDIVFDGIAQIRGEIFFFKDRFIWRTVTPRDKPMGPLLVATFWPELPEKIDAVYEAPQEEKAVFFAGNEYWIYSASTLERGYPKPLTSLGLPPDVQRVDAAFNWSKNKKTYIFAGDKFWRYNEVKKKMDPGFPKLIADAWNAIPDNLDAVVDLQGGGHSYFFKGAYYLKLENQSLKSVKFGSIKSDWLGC
reportedMetric: IC50 (µM)
Respond with the bare value in µM.

Query: # get_value(readout='IC50', item= O=C(NC[C@H](OCc1ccc(C#Cc2ccc(CN3CCOCC3)cc2)cc1)C(=O)NO)c1cc[nH]n1 [(S)-13l] )
Response: 67

---

- System: LpxC–9 complex
- assay: NMR-ILOE (interligand NOESY) of fragment hits with LpxC and 9
- measurementSetup: fragment hits binding the LpxC–9 complex by STD and WaterLogsy; 6 μM LpxC
reportedMetric: Inter-Ligand NOESY peaks between the fragment and 9

Worked examples follow.
>>> result("Nc1c2c(nc3ccccc13)CCCC2")
"no"
>>> result("c1ccc2[nH]ncc2c1")
"no"
>>> result("Nc1cccc(-c2cnco2)c1")
"no"
>>> result("Nc1cnc2ccccc2c1")
"yes"
>>> result("OCc1ccc(-n2cccn2)cc1")
"no"
>>> result("c1ccc2[nH]ccc2c1")
"yes"
>>> result("COc1ccc2[nH]ccc2c1")
"yes"
>>> result("O=C1OCc2ccccc21")
"no"

Query: What does the data say about its Inter-Ligand NOESY peaks between the fragment and 9? Entry: "O=c1ccn([C@@H]2O[C@H](CO)[C@@H](O)[C@H]2O)c(=O)[nH]1"
Response: no

Query: Could you share which Inter-Ligand NOESY peaks between the fragment and 9 value was measured for "c1ccc(Nc2ccccn2)nc1" ?
Response: no

Query: Requested field: Inter-Ligand NOESY peaks between the fragment and 9. Item: "NCc1ccc(-c2ccccc2)cc1"
Response: yes

Query: For "c1ccc(Cn2ccnc2)cc1" , what is its reported Inter-Ligand NOESY peaks between the fragment and 9?
Response: yes

Query: Which Inter-Ligand NOESY peaks between the fragment and 9 is reported for this compound? "Oc1ccc(-n2ccnc2)cc1"
Response: yes

Query: Reported Inter-Ligand NOESY peaks between the fragment and 9 for "c1ccc2c(c1)CCCN2" : what is it?
Response: yes
